Assay: protein stability index of a GFP-peptide fusion (GPS, HEK-293T) (PSI 1-6); higher = more stable;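 also: 24-mer peptide tiles fused after GFP, lentivirally expressed, FACS-sorted into six equal bins by GFP/DsRed ratio, decoded by Illumina sequencing, PSI is the read-weighted mean bin number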
Settings: treatment: MLN4924 1 uM, 8 h; c terminus: a fixed tail appended
Category | rule: reported protein stability index within range, see c1: < 3; c2: ≥ 3 and < 5; c3: ≥ 5

residue sequence | group label
DAGEGIQCSQRMLSFSDALLSIIA [TMEM175] | c1
SRVLQNGGDKLETMPLYLEDDIRP [SCD] | c2
KSERRNLLEDDSDEEEDFFLRGPS [VAMP4] | c3
RRLRDMVERPHSGLPGKVFACLSV [KCNG1] | c1

Exercise: read the entry LWPTPGHLSPLVVHRQLSHLYAEP [ESR2] and state which class it falls under.
c1

Class (by measured protein stability index) for GIHPLSSSEVDELIHKADEVTLSE [PALM]
c3

Band for the recorded protein stability index of RLKKEEEDRIVTQNRVFAYLCKRV [CEP70] ?
c1

Note: place this sequence into its band. Item: DKPSEPASEEGSESEGSESSGRSC [SMG5]
c3

Band for the recorded protein stability index of MNGGMSLVAFVLLNECVGTAYWAL [SLC22A15] ?
c2

GET /class?item= QYSVEGGKETLTPSELRDLVTQQL [S100A14]
c2

For the record RRWGKRKNKPKMNYEKLSRGLRYY [ETS1] , report the class its protein stability index corresponds to.
c1

Please report the category associated with LIILASGGPQALVNIMRTYTYEKL [CTNNB1] , nothing else.
c2

Which bin, given its protein stability index, does GEREAIQKSVTRSCLLEEEEESGE [POP5] occupy?
c3

---

Assay: protein stability index of a GFP-peptide fusion (GPS, HEK-293T) (PSI 1-6); higher = more stable
Settings: treatment: DMSO; c terminus: a fixed tail appended
metric: protein stability index
Answer with a bare number; do not write a unit.

residue sequence | protein stability index
PSPPAAPSVADNLLASSDAALSAS [SERTAD1] | 5.25
VVQEPPGRASRFLQSISWDPEDFE [TLE6] | 4.24
AQRSAHCSRPSGSSSSSGVLMVGP [CSNK1G1] | 3.65

Fill blank: measured protein stability index of the sequence RDILVEADGAWVVKMFYSFQDKRN [STK38L] is ____.
2.07

Item under review: LEQTAREILTLLQGVHQGAGFQDI [TSN] . Reported protein stability index?
3.07

// returns reported protein stability index for input RKQILLRGKLKKTEEELRRIQTQK [ZC2HC1C]
3.99

Consider the sequence shown here: LIFGLITCLTGVLGVGLGVEISRR [SPNS1] What is its recorded protein stability index?
2.66

# lookup: protein stability index of LENAEVLELTVRRVQGVLRGRARE [HES6]
3.81

Bench note: what protein stability index did GRLELKPLLLRLPRICQRNLMSLL [FANCE] show?
2.63

---

Experiment: protein stability index of a GFP-peptide fusion (GPS, HEK-293T) (PSI 1-6); higher = more stable
Conditions: treatment: DMSO; c terminus: a fixed tail appended
Recorded protein stability index determines the group label, using group A: < 3; group B: ≥ 3 and < 4; group C: ≥ 4

Example cases with answers are listed next.
residue sequence | group label
GRAGAVGTPGERGPPGPPGPPGPP [EMID1] | group C
FALIAVVFLASGAVSVMKKCRKLE [SLC19A2] | group B
SAPYSAAFLELPHGSGGSGYPAAP [TBX6] | group B

State the class of the sequence shown: YKREILERVDGRRLVYKFGKNSSG [ELF3]
group B

Into which bin does this sequence go? NYLIFSQKPEFQDLSVEERSFVEK [RHOBTB3]
group B

---

Assay: protein stability index of a GFP-peptide fusion (GPS, HEK-293T) (PSI 1-6); higher = more stable
Details: treatment: MLN4924 1 uM, 8 h; c terminus: a fixed tail appended
# cutoff 5 applies to protein stability index; >= gives Y, < gives N

residue sequence | group label
LLVGRYPFHDSDPSALFSKIRRGQ [TRIB1] | N
EAITSASFLEQIMAPLQPSTSRAH [FAM189A2] | N
AGTPGYLSPEVLRKDPYGKPVDMW [CAMK2D] | N
SPPDQPAVPHPPPSTPIKLEEGDG [ADD1] | Y

Now look at this one.
State whether the measured protein stability index reaches 5, counting equality as reaching it, for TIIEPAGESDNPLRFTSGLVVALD [INTS4]
N

---

Assay: protein stability index of a GFP-peptide fusion (GPS, HEK-293T) (PSI 1-6); higher = more stable
Conditions: treatment: MLN4924 1 uM, 8 h; c terminus: a fixed tail appended
Binned protein stability index; ranges: low class (below 3), middle class (3 to below 4), high class (4 or more)

residue sequence | group label
MVLAPVFGYLGDRYNRKYLMCGGI [SPNS1] | low class
DEDDSEELEEDDGHGAEQAAAFPT [EHMT1] | high class
MVRFKHRYLLCELVSDDPRCRLSL [POP5] | low class
PSGSSGSLSTSSSSSPPGTPSPAD [CEBPB] | high class

Which protein stability index band matches SPPSSSAASSYSFSDLNSTRGDAD [EMD] ?
high class

Just checking, what class would you give GEQEFEALMRMLDNLGYRTGYPYR [ADD1] here?
low class

State the class of the sequence shown: ALLDSLPPPVESELALFQMSVLWL [KLHL14]
low class

The entry to classify is YRDLAGGTGRSAKEQVLRKGTENL [FCHSD1] ; which class holds it?
high class

---

Assay: protein stability index of a GFP-peptide fusion (GPS, HEK-293T) (PSI 1-6); higher = more stable
Conditions: treatment: DMSO; c terminus: a fixed tail appended
metric: protein stability index
Just the number, please.

Sample answers from the record:
residue sequence | measurement
ELAYMKKNHEEEMKEFSNQVVGQV [KRT13] | 4.7
HSVLVDDDGIKVVKVTFNKQDSLV [TMEM106C] | 3.09
PLLSNTFTETNNHWPQGPTGPPGP [EMID1] | 3.53

What value of protein stability index has been reported for the following sequence? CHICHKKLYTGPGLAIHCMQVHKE [ZNF207]
3.07

Fill in the blank: the reported protein stability index of VSQHWATWALYNLVSVYPDKYCPL [ZER1] is ____.
3.07

Given the sequence ERVTVAKLTLENFYSNLILQHEER [STK38L] , what is its reported protein stability index?
2.85

Consider the sequence shown here: NTLRSQLGDRLNVEVDTAPTVDLN [KRT34] What is its recorded protein stability index?
4.84

Which protein stability index is listed for CPEGLEELLSAPPPDLGAQRRHGW [SPSB2] ?
3.8

protein stability index for PVSASRSSLDLSYYPTSSSTSFMS [EMD] ?
3.38

Returns the measured protein stability index for the input sequence. Input: MRTTNLDNRCKLFDSPSLCSSSTR [CDC25A]
3.21

If you can, please state the reported protein stability index value of LIKAKSQARLEEQQRLAHLEDKLR [LRRC45] .
3.77

---

Assay: protein stability index of a GFP-peptide fusion (GPS, HEK-293T) (PSI 1-6); higher = more stable
Details: treatment: DMSO; c terminus: a fixed tail appended
metric: protein stability index

// known answers, use as guide
residue sequence | measurement
EKQLAKKEQSKELQMKLEKLREKE [FAM50A] | 5.34
CWSFYGQGRKIAEVCCTSIVYATE [KCTD13] | 2.88
PLVLTEVLFNEKIREQIKKYRRHF [EIF5] | 2.31
CVPGQVFSPDGPSRFRKAYKPEQP [LOXL2] | 3.17
QARRQQVKQYLSTTLGPKLASQAL [TFE3] | 2.95
QIRDWRGGRLENQKPRGLEGGVLR [ZSWIM9] | 3.3

Which protein stability index is reported for this sequence? ADSEQADIARMLYKDTCHELDELQ [ZMYND11]
5.14

Look at this sequence and give its reported protein stability index. EALYAQDPSTGCYMYYFQYLSKTY [KMT5A]
3.26

Given the sequence TSIQWKNHDQNNHNTDRSSHKDSM [EDNRA] , what is its reported protein stability index?
5.05

Any idea what its protein stability index is? The sequence is MQVLGPEDLQSIIYKLEEHEEFFP [CEP70]
2.99

Looking for the measured protein stability index of STRPEEGCSLHEEDTQRHETYHQQ [TCAP] , can you help?
5.47

Query (sequence): SSMKKFCRPLLPSCTTRLCQEEQL [PSD2] ; field requested: protein stability index
2.88

---

Item-by-item account of protein stability index
Test: protein stability index of a GFP-peptide fusion (GPS, HEK-293T) (PSI 1-6); higher = more stable
Conditions: treatment: DMSO; c terminus: a fixed tail appended
// print number alone

These solved cases illustrate the format of a correct answer.
residue sequence | protein stability index
GSSDKVYAHQMVRTDSREQKLDAF [MLH1] | 4.12
AFVSNSPKLFCPKNRSFDIDAIYS [PLD5] | 2.15

Value lookup for protein stability index; key = QGEAFQRALESELQQLRARLQGLE [PBXIP1]
3.1

Item LNKCFIKVPREKDEPGKGGFWRID [FOXJ1] has what recorded protein stability index?
2.98

Look at this sequence and give its reported protein stability index. LSSEMNTSTVNSAREELMESRMRI [LMNB1]
4.48

Using the record for MREMFFEDHIDDAKYCGHLYGLGS [CNOT7] , report its protein stability index.
2.68

Report protein stability index for IPPAAMLDQAPKARKYFERLPGGG [DYRK1B] please.
3.72
